# SUBJECT OF TEST: tau protein (Homo sapiens)
# Construct: the full-length tau plasmid construct was transformed into E. coli, BL21 strain; inferred from the Ni-NTA purification
# Sequence (P10636 1-441 isoform P10636-8): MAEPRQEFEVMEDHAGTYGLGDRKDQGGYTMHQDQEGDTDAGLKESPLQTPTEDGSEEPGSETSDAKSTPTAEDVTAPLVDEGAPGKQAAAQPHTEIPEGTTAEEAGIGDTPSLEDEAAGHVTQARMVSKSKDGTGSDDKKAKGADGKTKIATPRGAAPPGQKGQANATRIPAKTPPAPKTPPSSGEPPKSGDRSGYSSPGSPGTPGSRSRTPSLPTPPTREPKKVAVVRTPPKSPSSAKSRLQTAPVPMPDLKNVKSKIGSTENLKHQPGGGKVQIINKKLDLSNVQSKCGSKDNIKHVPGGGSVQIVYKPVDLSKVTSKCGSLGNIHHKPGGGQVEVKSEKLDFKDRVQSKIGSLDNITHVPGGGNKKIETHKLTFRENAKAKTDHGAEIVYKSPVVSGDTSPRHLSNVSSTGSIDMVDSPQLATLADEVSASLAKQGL
# ASSAY PROCEDURE: Tau intrinsic fluorescence quenching assay
# EXPERIMENTAL CONDITIONS: tau 5 μM, compound 250 nM to 25 μM, PBS pH 7.4; read-out: One site binding saturation fit Kd with tau
Listing: pKd of selected compounds
// pKd here means minus log10 of the molar concentration (mol/L)

Guide cases for pKd, answers given:
COMPOUND: O=C1N[C@@H](Cc2c[nH]c3ccccc23)C(=O)N[C@H]1CCCCN1C(=O)c2cccc3c(N(Cc4ccccn4)Cc4ccccn4)ccc(c23)C1=O [Compound 1c]
pKd: 5.40
//
COMPOUND: O=C1N[C@@H](Cc2ccccc2)C(=O)N[C@H]1CCCCN1C(=O)c2cccc3c(N(Cc4ccccn4)Cc4ccccn4)ccc(c23)C1=O [Compound 1a]
pKd: 5.54

Data request, read-out pKd, for O=C1N[C@@H](Cc2ccc(O)cc2)C(=O)N[C@H]1CCCCN1C(=O)c2cccc3c(N(Cc4ccccn4)Cc4ccccn4)ccc(c23)C1=O [Compound 1b]
5.76
